System: ES4 (Ewing's Sarcoma)
Assay: combination Emax (second highest fraction inhibited in the dose matrix, 72 h); higher = more inhibition; extreme values may be limits of the assay
Form field: combination Emax (one value per entry).

Examples with their reported combination Emax follow.
query: Tell me its combination Emax given COc1nnc2ccc(N3CCC(c4ccc(OCCN5CCN(C)C(=O)[C@H]5C)cc4)CC3)nn12 [AZD5153] + C=CCn1c(=O)c2cnc(Nc3ccc(N4CCN(C)CC4)cc3)nc2n1-c1cccc(C(C)(C)O)n1 [AZD1775] (first compound max 1 µM, partner max 1 µM) as the entry.
result: 0.758

query: Tell me its combination Emax given CC(=O)c1c(C)c2cnc(Nc3ccc(N4CCNCC4)cn3)nc2n(C2CCCC2)c1=O [Palbociclib] + Cc1c2c(nn1C)CSCc1cc(n(C)n1)CSc1cc(c3ccccc3c1)OCCCc1c(C(=O)O)n(C)c3c-2c(Cl)ccc13 [AZD5991] (first compound max 10 µM, 7x7, partner max 1 µM) as the entry.
result: 0.244

New cases:
query: Tell me its combination Emax given C[C@@H](c1ccc2nccn2c1)n1nnc2ncc(-c3cnn(C)c3)nc21 [Savolitinib] + CC1(C)CCC(CN2CCN(c3ccc(C(=O)NS(=O)(=O)c4ccc(NCC5CCOCC5)c([N+](=O)[O-])c4)c(Oc4cnc5[nH]ccc5c4)c3)CC2)=C(c2ccc(Cl)cc2)C1 [Venetoclax] (first compound max 1 µM, 7x7, partner max 1 µM) as the entry.
result: 0.113

---

Form field: Bliss excess (one value per entry).
System: Ramos-2G6-4C10 (Burkitt's Lymphoma);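 note: after 72 h of two-drug dosing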
Assay: Bliss excess, mean over the matrix (fraction); higher = more synergy
The reply should be a number, written without any unit.

query: Tell me its Bliss excess given Cc1c2c(nn1C)CSCc1cc(n(C)n1)CSc1cc(c3ccccc3c1)OCCCc1c(C(=O)O)n(C)c3c-2c(Cl)ccc13 [AZD5991] + Cc1cc2ncnn2cc1Nc1ncc2c(n1)n(C1CCOCC1)c(=O)n2C [AZD7648] (first compound max 1 µM, 7x7, partner max 10 µM) as the entry.
result: 0.0227

query: Tell me its Bliss excess given Cc1c2c(nn1C)CSCc1cc(n(C)n1)CSc1cc(c3ccccc3c1)OCCCc1c(C(=O)O)n(C)c3c-2c(Cl)ccc13 [AZD5991] + CS(=O)(=O)CCNCc1ccc(-c2ccc3ncnc(Nc4ccc(OCc5cccc(F)c5)c(Cl)c4)c3c2)o1 [Lapatinib] (first compound max 1 µM, 7x7, partner max 10 µM) as the entry.
result: 0.0153

query: Tell me its Bliss excess given COc1cc2ncnc(Nc3ccc(F)c(Cl)c3)c2cc1OCCCN1CCOCC1 [Gefitinib] + CC(C)n1c(=O)n(C)c2cnc3cc(F)c(-c4ccc(OCCCN5CCCCC5)nc4)cc3c21 [AZD1390] (first compound max 10 µM, 7x7, partner max 0.3 µM) as the entry.
result: -0.0626

Now take the following compound into account.
query: Tell me its Bliss excess given CC1(C)CCC(CN2CCN(c3ccc(C(=O)NS(=O)(=O)c4ccc(NCC5CCOCC5)c([N+](=O)[O-])c4)c(Oc4cnc5[nH]ccc5c4)c3)CC2)=C(c2ccc(Cl)cc2)C1 [Venetoclax] + CN(C)CCCOc1ccc(-c2ccc3ncc4c(c3c2)n(C2CCOCC2)c(=O)n4C)cn1 [AZD0156] (first compound max 1 µM, 7x7, partner max 1 µM) as the entry.
result: 0.0676
